From: the supplement of paper PMC6555819

- Tested on: THRa:RXRa (NR concentration 90 nM, RXRa partner concentration 90 nM)
- assay protocol: PBM binding z-score (relative to random genomic background probes); higher = stronger binding; sequences stand for … in GC…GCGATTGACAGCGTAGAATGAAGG
I'd appreciate it if you could supply PBM binding z-score values for the items below.
Output spec: single numeric token, no unit.

Record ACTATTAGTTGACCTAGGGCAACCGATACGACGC . Reported PBM binding z-score: 2.96

Record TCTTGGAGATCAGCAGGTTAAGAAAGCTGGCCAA . Reported PBM binding z-score: 0.0283

Record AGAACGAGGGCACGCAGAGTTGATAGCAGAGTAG . Reported PBM binding z-score: 1.94

Record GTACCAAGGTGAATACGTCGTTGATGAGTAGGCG . Reported PBM binding z-score: 1.19

Record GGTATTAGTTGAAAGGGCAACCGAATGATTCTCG . Reported PBM binding z-score: 1.08

Record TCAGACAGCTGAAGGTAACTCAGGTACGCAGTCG . Reported PBM binding z-score: 1.05

Record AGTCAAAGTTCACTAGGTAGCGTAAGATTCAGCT . Reported PBM binding z-score: 1.66

Record CCTAGCAGGCCAATCTGGGGCACTCAAGGCTTGA . Reported PBM binding z-score: 1.65

Record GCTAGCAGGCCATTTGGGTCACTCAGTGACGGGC . Reported PBM binding z-score: 1.9

Record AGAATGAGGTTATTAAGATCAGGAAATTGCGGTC . Reported PBM binding z-score: 2.06

Record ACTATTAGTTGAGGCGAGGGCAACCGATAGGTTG . Reported PBM binding z-score: 2.43

Record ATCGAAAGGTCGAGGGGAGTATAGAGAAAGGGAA . Reported PBM binding z-score: 2.05
